Source listed as PubChem BioAssay AID1963860.

- System: CN0375-F725-PDC KRAS spheroid viability
- method_notes: Anticancer human tumor CN0375-F725-PDC patient-derived colon carcinoma cell line growth inhibition [KRAS2]
- experimental_setup: second compound 3.16 µM; first compound 0.0316 µM; active compounds read low; spheroids with HUVEC and MSC
observable: viability, T/C

molecule	val
CC(=O)Nc1cccc(-n2c(=O)n(C3CC3)c(=O)c3c(Nc4ccc(I)cc4F)n(C)c(=O)c(C)c32)c1 + COc1cc2nc(C)nc(NC(C)c3cc(N)cc(C(F)(F)F)c3)c2cc1OC1CCOC1	25.4%
COc1cc(Nc2ncc3c(n2)-c2ccc(Cl)cc2C(c2c(F)cccc2OC)=NC3)ccc1C(=O)O + COc1cc2nc(C)nc(NC(C)c3cc(N)cc(C(F)(F)F)c3)c2cc1OC1CCOC1	84.8%
COC(=O)c1ccc2c(C(=Nc3ccc(N(C)C(=O)CN4CCN(C)CC4)cc3)c3ccccc3)c(O)[nH]c2c1 + C=CC(=O)N1CCN(c2nc(OCC3CCCN3C)nc3c2CCN(c2cccc4cccc(C)c24)C3)CC1CC#N	26.5%

----------
- Test system: CN0375-F725-PDC KRAS spheroid viability
- method_notes: Anticancer human tumor CN0375-F725-PDC cell line growth inhibition [KRAS2];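 also: spheroids exposed to agents for 7 days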
- experimental_setup: second compound 10 µM; first compound 0.001 µM; active compounds read low; spheroids with HUVEC and MSC
observable: viability, T/C (%)

compound	study_target	val
CC(=O)Nc1cccc(-n2c(=O)n(C3CC3)c(=O)c3c(Nc4ccc(I)cc4F)n(C)c(=O)c(C)c32)c1 + CNCc1ccccc1-c1csc(C(C)Nc2nc(C)nc3cc(OC)c(OC)cc23)c1	CN0375-F725-PDC KRAS spheroid viability	0.26
CC(=O)Nc1cccc(-n2c(=O)n(C3CC3)c(=O)c3c(Nc4ccc(I)cc4F)n(C)c(=O)c(C)c32)c1 + CC1OCC2(CCN(c3cnc(Sc4ccnc(N)c4Cl)c(N)n3)CC2)C1N	CN0375-F725-PDC KRAS spheroid viability	37.6
Cn1ncnc1[C@H]1c2n[nH]c(=O)c3cc(F)cc(c23)N[C@@H]1c1ccc(F)cc1 + COc1cc2nc(C)nc(NC(C)c3cc(N)cc(C(F)(F)F)c3)c2cc1OC1CCOC1	CN0375-F725-PDC KRAS spheroid viability	14
CN(C)C/C=C/C(=O)Nc1cc2c(Nc3ccc(F)c(Cl)c3)ncnc2cc1O[C@H]1CCOC1 + COc1cc2nc(C)nc(NC(C)c3cc(N)cc(C(F)(F)F)c3)c2cc1OC1CCOC1	CN0375-F725-PDC KRAS spheroid viability	70.1
CC(C)n1nc(-c2ccc3oc(N)nc3c2)c2c(N)ncnc21 + C=CC(=O)N1CCN(c2nc(=O)n(-c3c(C)ccnc3C(C)C)c3nc(-c4c(O)cccc4F)c(F)cc23)C(C)C1	CN0375-F725-PDC KRAS spheroid viability	77.9
Cn1ncnc1[C@H]1c2n[nH]c(=O)c3cc(F)cc(c23)N[C@@H]1c1ccc(F)cc1 + C=CC(=O)N1CCN(c2nc(=O)n(-c3c(C)ccnc3C(C)C)c3nc(-c4c(O)cccc4F)c(F)cc23)C(C)C1	CN0375-F725-PDC KRAS spheroid viability	106
CC(C)n1nc(-c2ccc3oc(N)nc3c2)c2c(N)ncnc21 + COc1cc2nc(C)nc(NC(C)c3cc(N)cc(C(F)(F)F)c3)c2cc1OC1CCOC1	CN0375-F725-PDC KRAS spheroid viability	14.8
CC(C)n1nc(-c2ccc3oc(N)nc3c2)c2c(N)ncnc21 + CC1OCC2(CCN(c3cnc(Sc4ccnc(N)c4Cl)c(N)n3)CC2)C1N	CN0375-F725-PDC KRAS spheroid viability	65
CN(C)C/C=C/C(=O)Nc1cc2c(Nc3ccc(F)c(Cl)c3)ncnc2cc1O[C@H]1CCOC1 + CNCc1ccccc1-c1csc(C(C)Nc2nc(C)nc3cc(OC)c(OC)cc23)c1	CN0375-F725-PDC KRAS spheroid viability	0.23
Cn1ncnc1[C@H]1c2n[nH]c(=O)c3cc(F)cc(c23)N[C@@H]1c1ccc(F)cc1 + CC1OCC2(CCN(c3cnc(Sc4ccnc(N)c4Cl)c(N)n3)CC2)C1N	CN0375-F725-PDC KRAS spheroid viability	72.7
CN(C)C/C=C/C(=O)Nc1cc2c(Nc3ccc(F)c(Cl)c3)ncnc2cc1O[C@H]1CCOC1 + CC1OCC2(CCN(c3cnc(Sc4ccnc(N)c4Cl)c(N)n3)CC2)C1N	CN0375-F725-PDC KRAS spheroid viability	96
